assay: Antioxidant activity assessed as AAPH radical scavenging activity preincubated for 15 mins measured every min for 80 mins by ORAC-FL assay relative to trolox; assay type: functional
I'd be grateful if you could share measured Activity for these entries.
# output: bare number, implied unit equiv

### Prompt Please report the measured Activity for "CCCCCCCn1nc(CCc2c[nH]c3ccc(OC)cc23)oc1=O"
### Response 2.1

### Prompt Hello, please tell me recorded Activity for this one: "CNc1nnc(CCc2c[nH]c3ccc(OC)cc23)o1"
### Response 1.8

### Prompt Identify measured Activity corresponding to "COc1ccc2[nH]cc(CCc3n[nH]c(=O)o3)c2c1"
### Response 2.7

### Prompt Fill in Activity for record "COc1ccc2[nH]cc(CCc3nn(CCCc4ccccc4)c(=O)o3)c2c1"
### Response 2.7

### Prompt Answer with the recorded Activity of "COc1ccc2[nH]cc(CCc3nn(CC4CCCC4)c(=O)o3)c2c1" only.
### Response 2.8

### Prompt Identify the reported Activity for the following entry. "CCCCCCn1nc(CCc2c[nH]c3ccc(OC)cc23)oc1=O"
### Response 3

### Prompt Quickly give me recorded Activity for "COc1ccc2[nH]cc(CCc3nn(CC4CCC4)c(=O)o3)c2c1"
### Response 2.2

* * *

target: Kelch-like ECH-associated protein 1 (Homo sapiens); assay: Binding affinity to human recombinant Keap1 Kelch domain expressed in Escherichia coli BL21 (DE3) by SPR assay
Calls of active or inactive are those of the source. The rule behind the calls is not given here.
Give one outcome, nothing more. List: active, inactive

### Prompt Outcome? "CCCn1nc(CCc2c[nH]c3ccc(OC)cc23)oc1=O"
### Response inactive

### Prompt Which outcome did this test record for the molecule "C#CCn1nc(/C=C/c2c[nH]c3ccc(OC)cc23)oc1=O" ?
### Response active

### Prompt Please state the recorded outcome for this molecule: "COc1ccc2[nH]cc(/C=C/c3n[nH]c(=O)o3)c2c1"
### Response active

### Prompt Assay result, entry COc1ccc2[nH]cc(CC(C)c3n[nH]c(=O)o3)c2c1 (configuration not stated) — outcome?
### Response inactive

### Prompt Just curious, what result did "C=CCNC(=O)/C=C/c1c[nH]c2ccc(OC)cc12" get here?
### Response inactive

### Prompt Test call for this molecule, please: "COc1cc2cccc(/C=C/c3n[nH]c(=O)o3)c2cc1OC"
### Response inactive

### Prompt Short answer needed: outcome of this test for "C#CCNC(=O)/C=C/c1c[nH]c2ccc(OC)cc12" ?
### Response active

* * *

Target: Nuclear factor erythroid 2-related factor 2 (Homo sapiens) (UniProt Q16236)
Sequence (whole entry): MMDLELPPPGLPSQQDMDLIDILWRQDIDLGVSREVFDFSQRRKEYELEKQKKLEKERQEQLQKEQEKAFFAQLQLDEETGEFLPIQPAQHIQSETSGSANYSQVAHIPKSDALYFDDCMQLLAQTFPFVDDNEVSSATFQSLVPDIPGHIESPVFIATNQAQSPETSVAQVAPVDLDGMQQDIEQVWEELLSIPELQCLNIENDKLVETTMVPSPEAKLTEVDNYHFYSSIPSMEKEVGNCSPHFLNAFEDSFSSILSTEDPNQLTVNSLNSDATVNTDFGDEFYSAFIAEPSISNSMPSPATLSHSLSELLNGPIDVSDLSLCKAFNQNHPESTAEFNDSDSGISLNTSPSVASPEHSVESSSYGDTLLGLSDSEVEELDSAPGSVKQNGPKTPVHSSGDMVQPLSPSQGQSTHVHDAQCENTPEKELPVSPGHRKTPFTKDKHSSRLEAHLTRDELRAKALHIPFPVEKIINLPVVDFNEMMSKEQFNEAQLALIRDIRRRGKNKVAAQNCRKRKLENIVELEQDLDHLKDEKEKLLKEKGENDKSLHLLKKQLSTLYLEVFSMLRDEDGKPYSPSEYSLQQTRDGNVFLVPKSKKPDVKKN
Experiment: Activation of NRF2 in human AREc32 cells incubated for 24 hrs by luciferase reporter gene assay
Type: cell-based
I'd be grateful if you could share measured CD for these entries.

### Prompt Give CD; test system Nuclear factor erythroid 2-related factor 2 (Homo sapiens) (UniProt Q16236); molecule "COc1ccc2[nH]cc(/C=C/c3n[nH]c(=O)o3)c2c1"
### Response > 60 µM

### Prompt Name the recorded CD of "COc1ccc2c(c1)C(/C=C/c1n[nH]c(=O)o1)=CCC2" , assay system Nuclear factor erythroid 2-related factor 2 (Homo sapiens) (UniProt Q16236).
### Response > 30 µM

### Prompt For Nuclear factor erythroid 2-related factor 2 (Homo sapiens) (UniProt Q16236), give CD of the listed molecule: COc1ccc2[nH]cc(CC(C)c3n[nH]c(=O)o3)c2c1 (stereo not given)
### Response > 30 µM

### Prompt Provide Nuclear factor erythroid 2-related factor 2 (Homo sapiens) (UniProt Q16236) CD reading for "COc1ccc2cccc(/C=C/c3n[nH]c(=O)o3)c2c1" .
### Response > 30 µM

### Prompt State CD (Nuclear factor erythroid 2-related factor 2 (Homo sapiens) (UniProt Q16236)) of "COc1cc2cccc(/C=C/c3n[nH]c(=O)o3)c2cc1OC" .
### Response > 30 µM
